Target: T1, Soluble CDCP1 extracellular domain (CDCP1-ECD) (SEQ ID NO:30) fused to Streptavidin Binding Protein (SBP) (human, UniProt Q9H5V8 30-663)
T1 construct: also called SBP-CDCP1-ECD
T1 sequence: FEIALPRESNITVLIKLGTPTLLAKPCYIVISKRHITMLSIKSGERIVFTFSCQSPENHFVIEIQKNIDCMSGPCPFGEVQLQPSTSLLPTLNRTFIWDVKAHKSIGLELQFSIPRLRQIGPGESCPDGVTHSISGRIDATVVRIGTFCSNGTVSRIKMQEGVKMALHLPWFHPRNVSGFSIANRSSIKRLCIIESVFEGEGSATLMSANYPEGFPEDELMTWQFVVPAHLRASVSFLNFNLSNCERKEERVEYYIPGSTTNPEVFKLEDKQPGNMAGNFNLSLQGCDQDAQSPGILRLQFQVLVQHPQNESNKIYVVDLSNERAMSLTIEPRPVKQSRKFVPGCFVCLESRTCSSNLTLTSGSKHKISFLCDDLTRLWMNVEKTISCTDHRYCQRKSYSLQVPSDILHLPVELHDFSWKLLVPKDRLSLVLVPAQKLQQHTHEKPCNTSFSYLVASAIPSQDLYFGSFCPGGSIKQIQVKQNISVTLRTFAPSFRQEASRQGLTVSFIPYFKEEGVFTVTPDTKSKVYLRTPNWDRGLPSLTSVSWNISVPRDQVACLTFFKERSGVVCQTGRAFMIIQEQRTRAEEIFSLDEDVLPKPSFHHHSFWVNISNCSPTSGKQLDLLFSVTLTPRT
Assay: ELISA on captured SBP-CDCP1-ECD, ratio relative to chimeric CUB4 (chHC4)
Method: Soluble CDCP1 extracellular domain (CDCP1-ECD) (SEQ ID NO:30) fused to Streptavidin Binding Protein (SBP) was captured on a sreptavidine plate. […] Humanized CUB4 antibodies and/or reference antibody (chimeric (chHC4) CUB4 antibody comprising human constant region and mouse VH and VL of SEQ ID NO:1 and 2) were tested either undiluted or using a 12-step-dilution. […] After intensive washing the binding of the antibodies was detected with ABTS tablets (Roche Diagnostics GmbH, Cat. No.: 1112422). […]
Label 1 for high-side relative binding ratio (at or above 0.3) and 0 for low-side relative binding ratio (below it).

Textbook exercise: given the entry hHC4-07 / hLC4-f (antibody, V domains shown) VH: EVQLLESGGGLVQPGGSLRLSCAASGFTFNSYAMSWVRQAPGKGLEWVSTISSGGSYTYYPDSVKGRFTISRDNSKNTLYLQMNSLRAEDTAVYYCAKHPDYDGVWFAYWGQGTLVTVSS VL: DIQMTQSPSSLSASVGDRVTITCSVSSSVFYVHWYQQKPGKAPKLLIYDTSKLASGVPSRFSGSGSGTDYTFTISSLQPEDIATYYCQQWNSNPPTFGGGTKVEIK , state whether its relative binding ratio is greater than or equal to 0.3.
0

hey, is relative binding ratio for this one >= 0.3? Humanized CUB4 Antibody No. 69 (antibody, IgG1, V domains shown, Human constant region; also called Antibody 69; hHC4-H / hLC-L2) VH: EVQLVESGGGLVQPGGSLRLSCAASGFTFNSYGMSWVRQAPGKGLEWVATISSGGSYKYYVDSVKGRFTISRDNAKNSLYLQMNSLRAEDTAVYYCARHPDYDGVWFAYWGQGTLVTVSS VL: EIVLTQSPATLSLSPGERATMSCSVSSSVFYLHWYQQKPGQAPRLWIYDTSKLASGIPARFSGSGSGTDFTLTISSLEPEDFAVYYCQQWNSNPPTFGGGTKVEIK
1

# check: relative binding ratio of hHC4-a / hLC4-K (antibody, V domains shown) VH: EVQLVESGGGLVKPGGSLRLSCAASGFTFNSYGMSWVRQAPGKGLEWVSTISSGGSYTYYPDSVKGRFTISRDNAKNSLYLQMNSLRAEDTAVYYCARHPDYDGVWFAYWGQGTLVTVSS VL: EIVLTQSPATLSLSPGERATLSCRASSSVFYLHWYQQKPGQAPRLWIYDTSKLASGIPARFSGSGSGTDFTLTISSLEPEDFAVYYCQQWNSNPPTFGGGTKVEIK is greater than or equal to 0.3
1

Is relative binding ratio for hHC4-c / hLC4-f (antibody, V domains shown) VH: EVQLVESGGGLVQPGGSLRLSCAASGFTFNSYGMSWVRQAPGKGLEWVATISSGGSYTYYPDSVKGRFTISRDNAKNSLYLQMNSLRAEDTAVYYCARHPDYDGVWFAYWGQGTLVTVSS VL: DIQMTQSPSSLSASVGDRVTITCSVSSSVFYVHWYQQKPGKAPKLLIYDTSKLASGVPSRFSGSGSGTDYTFTISSLQPEDIATYYCQQWNSNPPTFGGGTKVEIK at or above 0.3?
1

Reported relative binding ratio reaches at least 0.3 for hHC4-H / hLC4-f (antibody, V domains shown, also called Humanized CUB4 Antibody No. 146) VH: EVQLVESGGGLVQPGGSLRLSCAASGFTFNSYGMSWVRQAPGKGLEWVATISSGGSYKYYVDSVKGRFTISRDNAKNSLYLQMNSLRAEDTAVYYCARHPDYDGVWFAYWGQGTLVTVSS VL: DIQMTQSPSSLSASVGDRVTITCSVSSSVFYVHWYQQKPGKAPKLLIYDTSKLASGVPSRFSGSGSGTDYTFTISSLQPEDIATYYCQQWNSNPPTFGGGTKVEIK ?
1

Recorded values, source patent US20110052582A1.
